# assay.info: RP, Merck Supelco Ascentis Express C18, 100 × 2.1 mm, 2 µm, 40 °C, 0.25 mL/min, estimated dead time 0.88 min; A: water + 0.1% formic acid, pH 3; B: acetonitrile + 0.1% formic acid, pH 3; gradient (min/%B) 0/5 2/5 17/99.9 20/99.9
# measurement.parameters: stereoisomer not certain
Consider the following molecules; for each one, report its log10 LC retention time.
Kindly note that the scale is log10 and the underlying LC retention time is in min.

>>> measured_result("Nc1ccccc1S(=O)(=O)O [ANILINE-2-SULFONATE]")
0.14
>>> measured_result("Cn1cnc2c(ncn2C2OC(CO)C(O)C2O)c1=N (stereo not drawn)")
0.20
>>> measured_result("CC12CCC(=O)C=C1CCC1C2CCC2(C)C1CCC2(O)C(=O)CO (stereo not drawn) [CORTEXOLONE]")
0.94

For every record below, what is its log10 LC retention time?
1. Cc1c[nH]c(=O)[nH]c1=O
2. NCCc1ccccc1
3. CCCCC(CC)COC(=O)c1ccccc1C(=O)OCC(CC)CCCC (stereo not drawn) [BIS(2-ETHYLHEXYL)PHTHALATE]
4. CCC=CCC=CCC=CCC=CCC=CCCCC(=O)O [EICOSAPENTAENOATE]
5. O=C(O)c1ccc2ccccc2n1 [2-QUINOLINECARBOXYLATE]

1. 0.10
2. 0.19
3. 1.26
4. 1.18
5. 0.61

Please state, for each entry, its recorded log10 LC retention time.
1. O=c1cccc(O)[nH]1 [2,6-DIHYDROXYPYRIDINE]
2. O=C(O)c1cc(O)ccc1O [2,5-DIHYDROXYBENZOATE]

0.08
0.60

List log10 LC retention time for every entry below, keeping the order given.
1. CC1C(=O)Nc2ccccc21 (stereo not drawn)
2. CC(=O)NC(C)C(=O)O (stereo not drawn)
3. O=C(O)Cc1cccc(O)c1 [3-HYDROXYPHENYLACETATE]
4. COC(=O)Cc1c[nH]c2ccccc12 [INDOLE-3-METHYL ACETATE]
5. O=C(O)c1cc(=O)c2cccc(O)c2[nH]1 [XANTHURENATE]
6. Cc1cc2nc3c(=O)[nH]c(=O)nc-3n(CC(O)C(O)C(O)CO)c2cc1C (stereo not drawn)
7. N[C@@H](Cc1ccc(O)c([N+](=O)[O-])c1)C(=O)O

1. 0.81
2. 0.08
3. 0.80
4. 0.94
5. 0.56
6. 0.69
7. 0.33

* * *

# assay.info: RP, Merck Supelco Ascentis Express C18, 100 × 2.1 mm, 2 µm, 40 °C, 0.2 mL/min, estimated dead time 1.1 min; A: water + 0.1% formic acid, pH 3; B: acetonitrile + 0.1% formic acid, pH 3; gradient (min/%B) 0/5 2/5 17/99.9 20/99.9
# measurement.parameters: stereoisomer not certain
assay.readout: LC retention time (min)
Answers are plain numbers, in min.

>>> measured_result("CSc1ncnc2nc[nH]c12")
4.85
>>> measured_result("CCC(C)C(N)C(=O)O (centres undefined)")
1.45
>>> measured_result("CC(=O)NCCc1c[nH]c2ccc(O)cc12")
4.97
>>> measured_result("O=c1cccc(O)[nH]1 [2,6-DIHYDROXYPYRIDINE]")
1.53
>>> measured_result("O=C(O)Cc1ccc(O)c(O)c1 [3,4-DIHYDROXYPHENYLACETATE]")
3.92

Batch of 5 compounds: report LC retention time for each.
1. Cc1cc2nc3c(=O)[nH]c(=O)nc-3n(CC(O)C(O)C(O)CO)c2cc1C (centres undefined)
2. N[C@@H](Cc1cc(I)c(Oc2ccc(O)cc2)c(I)c1)C(=O)O
3. CC(O)(CC(=O)O)CC(=O)O [3-HYDROXYMETHYLGLUTARATE]
4. Nc1nc2c(ncn2C2OC3COP(=O)(O)OC3C2O)c(=O)[nH]1 (centres undefined)
5. COc1cc(CCN)ccc1O

5.38
7.22
1.6
1.34
1.78

Working through the 2 compounds below one at a time, give LC retention time for each.
1. CC(CCCC(C)(C)O)C1CCC2C3CC=C4CC(O)CCC4(C)C3CCC12C (centres undefined) [25-HYDROXYCHOLESTEROL]
2. O=C(O)C(O)COP(=O)(O)O (centres undefined) [3-PHOSPHOGLYCERATE]

1: 13.4; 2: 1.39

Below are 2 compounds. Give each one its LC retention time.
1. O=C/C=C/c1ccccc1 [TRANS-CINNAMALDEHYDE]
2. Cn1cnc2c1c(=O)[nH]c(=O)n2C

1: 11.7; 2: 2.69

* * *

# assay.info: RP, Merck Supelco Ascentis Express C18, 100 × 2.1 mm, 2 µm, 39 °C, 0.3 mL/min, estimated dead time 0.73 min; A: water + 0.1% formic acid, pH 3; B: acetonitrile + 0.1% formic acid, pH 3; gradient (min/%B) 0/5 2/5 17/99.9 20/99.9
# measurement.parameters: stereoisomer not certain
We label by threshold. Values of LC retention time strictly beneath 7 min are 1.0. Values of 7 min and up are 0.0.

>>> category("COc1ccc2[nH]cc(CCNC(C)=O)c2c1 [MELATONIN]")
1.0

For this compound, is LC retention time lower than 7 min? O=C(O)CCCCCCCC(=O)O [AZELATE]
1.0

Report whether reported LC retention time is lower than 7 min (strictly) for O=C(O)Cc1ccccc1O [2-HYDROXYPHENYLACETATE]
1.0

Is the reported LC retention time for NC(Cc1cc(I)c(Oc2ccc(O)c(I)c2)c(I)c1)C(=O)O (stereo unspecified) [LIOTHYRONINE] strictly below 7 min?
0.0

Bench note: check whether CCCCCCCCC(=O)[O-] [NONANOATE] shows LC retention time below 7 min
0.0

* * *

# assay.info: RP, Merck Supelco Ascentis Express C18, 100 × 2.1 mm, 2 µm, 40 °C, 0.25 mL/min, estimated dead time 0.88 min; A: water + 0.1% formic acid, pH 3; B: acetonitrile + 0.1% formic acid, pH 3; gradient (min/%B) 0/5 2/5 17/99.9 20/99.9
# measurement.parameters: stereoisomer not certain
Counter-ions that a name gives are not always drawn.
Assign labels as follows, please: fulfilled for LC retention time below 7 min; not fulfilled for LC retention time equal to or exceeding 7 min.

>>> category("CC(CCC(=O)O)C(=O)O (stereo unspecified) [2-METHYLGLUTARATE]")
"fulfilled"

Consider the compound CC(=O)C1CCC2C3CC=C4CC(OS(=O)(=O)O)CCC4(C)C3CCC12C (stereo unspecified) [PREGNENOLONE SULFATE] . Is its LC retention time strictly less than 7 min?
not fulfilled

Problem: For the compound O=C(O)C=Cc1ccc(O)cc1 [4-COUMARATE] , is LC retention time under 7 min?
fulfilled

Below 7 min on LC retention time? Entry O=C(O)C(O)Cc1ccc(O)cc1 (stereo unspecified) [HYDROXYPHENYLLACTATE]
fulfilled

Just wondering, is LC retention time of CCCCCCCCCCCCCCCCC(=O)O [HEPTADECANOATE] below 7 min?
not fulfilled

For O=C(O)Cc1ccc(O)cc1 [P-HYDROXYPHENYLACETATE] , is the recorded LC retention time below the cut-off of 7 min?
fulfilled

* * *

Please respond with reported LC retention time for every item in the list.
# assay.info: RP, Merck Supelco Ascentis Express C18, 100 × 2.1 mm, 2 µm, 40 °C, 0.2 mL/min, estimated dead time 1.1 min; A: water + 0.1% formic acid, pH 3; B: acetonitrile + 0.1% formic acid, pH 3; gradient (min/%B) 0/5 2/5 17/99.9 20/99.9
# measurement.parameters: stereoisomer not certain
Numbers only, in min.

>>> measured_result("CC(=O)c1ccc(O)cc1O [2',4'-DIHYDROXYACETOPHENONE]")
7
>>> measured_result("Cc1ncc(CO)c(C(=O)O)c1O [4-PYRIDOXATE]")
1.57
>>> measured_result("O=c1[nH]c(=O)c2nccnc2[nH]1 [2,4-DIHYDROXYPTERIDINE]")
1.41
>>> measured_result("CCCCC(CC)COC(=O)c1ccccc1C(=O)OCC(CC)CCCC (centres undefined) [BIS(2-ETHYLHEXYL)PHTHALATE]")
19
>>> measured_result("NC(=O)CCCCC1CCSS1 (centres undefined) [LIPOAMIDE]")
7.65

Could I get LC retention time for every one of these entries?
1. c1ncc2[nH]cnc2n1
2. CC12CCC(=O)C=C1CCC1C2C(=O)CC2(C)C1CCC2(O)C(=O)CO (centres undefined)
3. NC(=O)Cc1c[nH]c2ccccc12 [INDOLE-3-ACETAMIDE]
4. Nc1ncnc2c1ncn2C1OC(CO)C2OP(=O)(O)OC21 (centres undefined) [ADENOSINE 2',3'-CYCLIC PHOSPHATE]

1.35
8.07
5.83
1.34

* * *

# assay.info: RP, Merck Supelco Ascentis Express C18, 100 × 2.1 mm, 2 µm, 40 °C, 0.2 mL/min, estimated dead time 1.1 min; A: water + 0.1% formic acid, pH 3; B: acetonitrile + 0.1% formic acid, pH 3; gradient (min/%B) 0/5 2/5 17/99.9 20/99.9
# measurement.parameters: stereoisomer not certain
Assignment: determine reported LC retention time for the given molecules.
Numbers only, in min.

These solved cases illustrate the format of a correct answer.
>>> measured_result("O=C(O)/C=C/c1ccccc1 [TRANS-CINNAMATE]")
8.28
>>> measured_result("CC12CCC(=O)C=C1CCC1C2C(O)CC2(C)C(C(=O)CO)CCC12 (configuration not stated)")
9.16
>>> measured_result("NCC(O)c1ccccc1 (configuration not stated)")
1.4

Go through the list and state LC retention time for each entry.
1. COc1cc(C=CC(=O)O)ccc1O [FERULATE]
2. Nc1nc2c(ncn2C2CC(O)C(CO)O2)c(=O)[nH]1 (configuration not stated)
3. O=C1CCCCO1
4. Cc1cc2nc3[nH]c(=O)[nH]c(=O)c3nc2cc1C
5. NC(Cc1ccc(O)cc1)C(=O)O (configuration not stated)

1. 6.32
2. 1.47
3. 3.96
4. 6.91
5. 1.33

From: the RepoRT retention time repository (doi:10.1007/s00216-021-03828-0)
